experiment: Phase 1 single ascending dose plasma pharmacokinetics; format: in vivo, human; conditions: both sexes, human, plasma, oral, 100 mg, Cohort 5, 100 mg single dose, fed, median; read-out: Tmax

smiles_code	Tmax (h)
C=CC(=O)N1CCC[C@@H](c2c(F)cc(C(N)=O)c3[nH]c4c(c23)CCCCC4)C1	1.5

###

assay: Solubility testing in vehicle, HPLC (Form III); type: physicochemical; conditions: aqueous with cosolvent or surfactant or cyclodextrin, thermodynamic from solid; 1% SLS; RT; 72 h; pH 7.2; loading 15 mg/mL

smiles_code	solubility at 72 h
C=CC(=O)N1CCC[C@@H](c2c(F)cc(C(N)=O)c3[nH]c4c(c23)CCCCC4)C1	1150 µg/mL

###

experiment: Solubility testing in bio-relevant media (Form III); assay type: physicochemical; conditions: thermodynamic from solid; FaSSIF, pH 6.5; 37° C.; 24 h; pH at 24 h 6.5
measurement_name: solubility at 24 h (µg/mL)

compound	number
C=CC(=O)N1CCC[C@@H](c2c(F)cc(C(N)=O)c3[nH]c4c(c23)CCCCC4)C1 [Form III]	7
